Tested on: HCT-15 colon
Assay Procedure: NCI-60 one-dose screen, 48 h (100 = growth as untreated, 0 = no growth, -100 = all killed)
Conditions Used: 10 µM unless noted
About 83,000 compounds went through this panel and 20% of them were active in at least one assay; those are over-represented in the sample as a whole.
Quick reference: growth of the listed items.
Measured Endpoint: growth (%)

- O=C(NNC(=O)N1c2ccccc2C=Cc2ccccc21)c1ccc2ccccc2c1: 95.4
- COC(=O)c1cccc2c1N(C)c1c(cccc1C(=O)OC)CC2: 97.9
- COc1ccc2c(c1)[nH]c(=O)c1c3cccc(F)c3cn21: 9.78
- C=C[C@@H]1C[C@@H]2Cc3cc(Cl)ccc3N1O2: 97.7
- C=C1CCC2C3(C)COC(c4c(OC)cccc4OC)OC3CCC2(C)C1C/C=C1/C(=O)OCC1O (stereo not given): 48.3
- CO[C@H]1NC(=O)N(S(=O)(=O)c2ccc(Cl)cc2)[C@@H]1OC: 102
- Cc1ccc(S(=O)(=O)NC(=O)n2cc(-c3ccncc3)c(-c3ccc(Cl)c(O)c3)n2)cc1: 107
- CN1C(=O)N(C)C2C1NN=c1s/c(=C\c3cccnc3)c(=O)n12 (stereo not given): 42.2
- Cc1csc(NC(c2ccc(Br)cc2)c2c(C)nc3ccccn23)n1 (stereo not given): 88.8
- COc1ccc(-n2c(-c3ccccc3)c(-c3ccccc3)c3c(SCC(=O)N/N=C/c4ccc(Cl)cc4)ncnc32)cc1: 105

----------
Tested on: OVCAR-3 ovarian
Assay Procedure: NCI-60 one-dose screen, 48 h (100 = growth as untreated, 0 = no growth, -100 = all killed)
Conditions Used: 10 µM unless noted
About 83,000 compounds went through this panel and 20% of them were active in at least one assay; those are over-represented in the sample as a whole.
Measured Endpoint: growth (%)

- S=c1[nH]nc(-c2cc3ccc2CCc2ccc(cc2)CC3)n1C1CC1: 108
- CC(C)(C)n1cc(-c2ccnc(NCCNS(=O)(=O)c3ccc(Cl)cc3)c2)c(-c2cccc(O)c2)n1: 72.5
- C=C1C(=O)O[C@H]2[C@H]1CC/C(Cn1cc(CNC(=O)c3cc4ccccc4[nH]3)nn1)=C\CC[C@@]1(C)O[C@@H]21: 3.43
- OCc1ncc(-c2ccccc2)s1: 101
- N=C(N)c1ccc(-c2ccc(-c3cncc4ccccc34)s2)cc1F: -91.6
- Cc1ccc(S(=O)(=O)n2cc(C(=O)C(=O)Nc3ccncc3)c3ccccc32)cc1: -12.1
- C=C(C)[C@@H]1C[C@@H]2Cc3ccc(Cl)c(C)c3N1O2: 105
- COc1cc2c(cc1OCCCN1CCN(CCCn3c4ccccc4c4ccccc43)CC1)N=C[C@@H]1CCCN1C2=O: -91.1
- CC(C)CSc1nc(NN)c(C#N)c(-c2ccccc2)n1: 91
- COc1cc2c(c(OC)c1OC)-c1ccc(N)c(=O)cc1[C@@H](NC(C)=O)CC2: -54.2

----------
System: SK-MEL-2 melanoma
Assay Procedure: NCI-60 one-dose screen, 48 h (100 = growth as untreated, 0 = no growth, -100 = all killed)
Conditions Used: 10 µM unless noted
Compounds without any hit were thinned out: in the full panel of roughly 83,000, 20% have a hit.
Quick reference: growth of the listed items.
Measured Endpoint: growth (%)

• O=C(C1=Cc2cc3ccccc3n2Cc2cnnn21)c1ccccc1 = 44.1
• NC1=NC(SCc2ccccc2CCl)c2ncn(Cc3ccccc3CCl)c2N1 (stereo not given) = -4.24
• CCCCN(CCCC)C(=O)CC = 112
• Nc1nc(Nc2cc(Cl)cc(Cl)c2)nn1S(=O)(=O)c1ccc2ccccc2c1 = 79.2
• N/C(=N\S(=O)(=O)c1ccccc1)Nc1nc2ccccc2s1 = 93.1
• CC(C)(C)c1[nH]nc2c1C(c1cc3ccccc3[nH]c1=O)Nc1cc(C(=O)Nc3ccc(Cl)cc3)ccc1N2 (stereo not given) = 77.9
• CCN(CC)CCC(CNc1ccnc2cc(Cl)ccc12)c1ccc(Cl)cc1 (stereo not given) = -75.7
• O=C(CSc1nc2ccccc2[nH]1)Nc1ccc(-c2nc3ccccc3s2)c(Cl)c1 = 51.2
• c1ccc(-c2nnc(-c3ccccn3)s2)nc1 = 104
• COc1cc2c(cc1OCCCN1CCN(CCCn3c4ccccc4c4ccccc43)CC1)N=C[C@@H]1CCCN1C2=O = -78.1
• ClC(Cl)c1nc(-c2cccnc2)n2nc(-c3ccccc3)cc2n1 = 87.6
• COc1cccc(CC(C)=C(c2ccc(OCCN(C)C)cc2)c2ccc(OCCN(C)C)cc2)c1 = 14
• O=C1/C(=C/c2ccc([N+](=O)[O-])cc2)CN(C(=O)CCN2CCC(=NO)CC2)C/C1=C\c1ccc([N+](=O)[O-])cc1 = 2.76
• C=C1CCC2C3(C)COC(c4c(OC)cccc4OC)OC3CCC2(C)C1C/C=C1/C(=O)OCC1O (stereo not given) = 50
• O=C(O)c1nc(-c2ccccc2)oc1N1CCOCC1 = 97
• COc1cccc(/C=C2\Oc3cc(OCCCN4CCCC4)ccc3C2=O)c1OC = 105
• N=C(N)c1ccc(-c2cc(Cl)cc(Cl)c2)cn1 = 101
• Clc1ccccc1-c1nc2ccccc2[nH]1 = 116
• COc1ccncc1S(=O)(=O)NC(=O)Nc1ccc(Cl)c(Cl)c1 = 92.9
• O=[N+]([O-])c1ccc(OCCCOc2ccccc2)cc1 = 102
• COc1ccc(N=Cc2c(O)ccc3c2oc2cc(Cl)c(O)c(Cl)c23)cc1 = -1.58
• Cc1ccc(S(=O)(=O)Nc2c(Br)cc(Br)cc2C(N)=O)cc1 = 113
• Cn1c(=O)cc(NC(=O)CN2CCN(c3cc4c(cc3F)c(=O)c(C(=O)O)cn4C3CC3)CC2)[nH]c1=O = 107
• Clc1cc(Cl)cc(-c2ccc(-c3ccc(/C=N/NC4=NCCN4)cc3)s2)c1 = 101
• CC(C)(C)n1cc(-c2ccnc(NCCCNS(=O)(=O)c3ccc(F)cc3)c2)c(-c2cccc(O)c2)n1 = 52.2
• O=C(CCl)N(C1CCCCC1)C1CCCCC1 = 108
• Nc1cccc(-c2nc3sccn3c2-c2ccnc(NCCNS(=O)(=O)c3ccc(C(F)(F)F)cc3)n2)c1 = 80.5
• CCOC(=O)C1C(=O)C=C(c2ccc(OC)cc2)CC1c1sc(N(C)Cc2ccccc2)nc1Cl (stereo not given) = 74.3
• COc1ccc(NC(=O)CSc2nc(-c3ccc(OC)c(OC)c3)cc(-c3cc(OC)c(OC)c(OC)c3)n2)cc1 = 89
• COc1ccc(S(=O)(=O)NCCCNc2nccc(-n3ccc4cccnc43)n2)cc1 = 106
• CCCCCCCCCCCCNC(=O)[C@H]1CSC(c2ccsc2)N1 (stereo not given in full) = -91
• CC12CCC3C4(C)COC(c5ccccc5Cl)OC4CCC3(C)C1CC(C1=CCOC1=O)O2 (stereo not given) = 77.4
• Fc1ccc(Nc2nc(NCCNc3ccnc4cc(Cl)ccc34)nc(N3CCOCC3)n2)cc1 = 50.7
• C=C(C)[C@@H]1CC[C@]2(C(=O)N3CCNCC3)CC[C@]3(C)[C@H](CC[C@@H]4[C@@]5(C)C/C(=C/c6ccncc6)C(=O)C(C)(C)[C@@H]5CC[C@]43C)[C@@H]12 = 107
• CN(C)CCN1C(=O)c2ccc3c4c(ccc(c24)C1=O)C(=O)N(CCN=C=S)C3=O = -75
• CCOC(=O)c1cn2c3c(cccc3c1=O)C(=O)/C(=C/c1cccc(Cl)c1Cl)C2 = 87.7
• CC(C)(C)Nc1c(-c2cccs2)nc2ncccn12 = 100
• COc1cccc(CC(C)=C(c2ccc(OCCN3CCCCC3)cc2)c2ccc(OCCN3CCCCC3)cc2)c1 = -65.4
• Cc1ccc2nc(Cl)cc(=O)n2c1 = 107
• CCc1ccc(-c2ccc(=O)n(-c3ccc(S(N)(=O)=O)cc3)n2)cc1 = 1.5

----------
Tested on: MDA-MB-231 breast
Assay Procedure: NCI-60 one-dose screen, 48 h (100 = growth as untreated, 0 = no growth, -100 = all killed)
Conditions Used: 10 µM unless noted
Compounds without any hit were thinned out: in the full panel of roughly 83,000, 20% have a hit.
Measured Endpoint: growth (%)

* CC(=O)OC[C@]12CC[C@H]3[C@@H](C[C@H]4O[C@]45CC=CC(=O)[C@]35C)[C@]1(O)CC[C@@]2(O)[C@@](C)(O)C1CC(C)=C(C)C(=O)O1 (some centres undefined) | -14.7
* C=C(C)[C@@H]1C[C@@H]2Cc3cc(F)ccc3N1O2 | 99.8
* CCN(CC)CCC(CNc1ccnc2cc(Cl)ccc12)c1ccc(Cl)cc1 (centres undefined) | -32.1
* COc1cc(Nc2ncccc2C(=O)NCc2cn(Cc3cccc(Oc4ccccc4)c3)nn2)cc(OC)c1 | 26.3
* Cc1cc(N/N=C/c2nc(-c3ccc(Br)cc3)oc2C)c2cc(Br)ccc2n1 | 55.9
* CCC1=CCC[C@@]2(C)CCC[C@@]3(C)CCCC(C)(C)[C@]1([O-])[O+]32 | 121
* COc1cc(C2CC(c3ccc4c(c3)OCO4)=NN2C=O)cc(OC)c1OC (centres undefined) | 68
* CC1=C(C#N)C(=O)NC(C)C1 (centres undefined) | 105
* CC(C)(C)n1cc(-c2ccnc(NCCCNS(=O)(=O)c3ccc(F)cc3)c2)c(-c2cccc(O)c2)n1 | 33.2
* O=C(CN1CCN(c2cc3c(cc2F)c(=O)c(C(=O)N/N=C/c2ccccc2O)cn3C2CC2)CC1)N/N=C\c1ccccc1O | 25.3
* COc1ccc2c(c1)OC1=C(C(=O)OC1)C2c1cc(OC)c2c(c1)OCO2 (centres undefined) | 9.12
* Cc1ccc2nc(-c3cc4c([nH]c5ccccc54)c(-c4ccc(F)c(F)c4)n3)[nH]c2c1 | 60.8
* O=C(/C=C/c1c[nH]c2ccccc12)c1ccc(O)c(CN2CCN(c3ccc(F)cc3)CC2)c1 | 98.7
* COc1ccc(-c2nc(/C=C3/C(=O)Nc4ccc(F)cc43)c3ccccn23)cc1 | 89.2
* C=C1CCC2C3(C)COC(c4ccc(N(C)C)cc4)OC3CCC2(C)C1C/C=C1/C(=O)OCC1O (centres undefined) | 85.4
* CCCCN(CCCC)c1ccc(C(=N)c2ccc(N(CCCC)CCCC)cc2)cc1 | -90.3
* CN1C(=O)N(C)C2C1NN=c1s/c(=C\c3cccnc3)c(=O)n12 (centres undefined) | 69.1
* COc1cccc(-c2cc3c(O)cc(C#N)cc3[nH]2)c1 | 73
* O=S(=O)(CC(O)(c1ccccc1)c1ccccc1)CC(O)(c1ccccc1)c1ccccc1 | 71.2
